# experimental.system: Voltage-gated inwardly rectifying potassium channel KCNH2 (Homo sapiens)
# run.description: hERG channel inhibition in selectivity testing, SAR follow-up, selectivity assay for TASK1 inhibitor project, FluxOR thallium flux, concentration-response, CHO cells (AID 652194)
# study.conditions: hERG-expressing cells, FluxOR thallium flux fluorescence
readout: IC50

Ask | May I ask what IC50 has been recorded for `Cc1cccc(C(=O)Nc2cccc(NC(=O)c3cccc(C)c3)c2)c1` ?
Reply | 12.4 µM

---

# experimental.system: Voltage-gated inwardly rectifying potassium channel KCNH2 (Homo sapiens) (UniProt Q12809)
# Sequence (Q12809 whole entry, looked up): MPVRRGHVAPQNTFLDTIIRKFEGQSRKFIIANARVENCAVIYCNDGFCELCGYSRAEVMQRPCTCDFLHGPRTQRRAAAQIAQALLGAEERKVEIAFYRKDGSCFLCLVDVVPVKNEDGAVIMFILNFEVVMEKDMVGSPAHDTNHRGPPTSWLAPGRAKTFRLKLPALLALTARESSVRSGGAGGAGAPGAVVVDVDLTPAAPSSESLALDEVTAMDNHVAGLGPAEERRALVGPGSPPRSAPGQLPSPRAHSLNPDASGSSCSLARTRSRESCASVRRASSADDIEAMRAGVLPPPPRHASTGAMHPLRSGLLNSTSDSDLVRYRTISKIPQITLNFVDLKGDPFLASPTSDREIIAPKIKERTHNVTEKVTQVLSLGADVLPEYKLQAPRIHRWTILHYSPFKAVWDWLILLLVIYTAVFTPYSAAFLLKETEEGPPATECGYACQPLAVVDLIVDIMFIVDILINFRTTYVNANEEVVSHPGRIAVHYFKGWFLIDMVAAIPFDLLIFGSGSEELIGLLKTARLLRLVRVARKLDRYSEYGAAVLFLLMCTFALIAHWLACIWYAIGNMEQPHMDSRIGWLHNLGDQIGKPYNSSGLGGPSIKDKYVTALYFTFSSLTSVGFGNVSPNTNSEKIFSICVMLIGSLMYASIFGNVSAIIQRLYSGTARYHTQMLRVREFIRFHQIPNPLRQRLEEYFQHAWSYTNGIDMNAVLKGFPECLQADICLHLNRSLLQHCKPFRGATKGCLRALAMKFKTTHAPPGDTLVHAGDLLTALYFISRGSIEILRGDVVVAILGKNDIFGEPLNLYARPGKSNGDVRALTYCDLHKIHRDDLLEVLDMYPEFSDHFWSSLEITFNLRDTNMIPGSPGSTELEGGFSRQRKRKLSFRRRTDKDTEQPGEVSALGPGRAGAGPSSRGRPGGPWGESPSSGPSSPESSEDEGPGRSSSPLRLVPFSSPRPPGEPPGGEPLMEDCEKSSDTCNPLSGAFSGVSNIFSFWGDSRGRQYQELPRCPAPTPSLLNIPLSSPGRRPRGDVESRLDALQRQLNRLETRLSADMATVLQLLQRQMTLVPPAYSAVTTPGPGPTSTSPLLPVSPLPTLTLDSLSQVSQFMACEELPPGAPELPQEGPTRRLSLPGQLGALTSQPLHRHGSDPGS
# run.description: hERG channel inhibition in selectivity testing, SAR follow-up, selectivity assay for TASK1 inhibitor project, FluxOR thallium flux, concentration-response, CHO cells (AID 652194)
# study.conditions: hERG-expressing cells, FluxOR thallium flux fluorescence; at 30 µM (top of the series)
Calls of active or inactive are those of the source.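 The calls were made as follows: active = hERG flux cut by over 30% at some tested dose, with a fitted dose response curve; inactive = no hERG inhibition at any dose or no curve.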
readout: flux ratio, lower = inhibition

The following compounds have reported results that may help.
O=C(Nc1cccc(NC(=O)c2cccc(Cl)c2)c1)c1ccccc1 :: inactive
O=C(Nc1cccc(NC(=O)c2cccc(F)c2)c1)c1ccccc1 :: inactive
CCOc1ccccc1C(=O)Nc1cccc(NC(=O)c2ccccc2OC)c1 :: inactive
O=C(Nc1cccc(NC(=O)c2ccoc2)c1)c1ccccc1 :: inactive
Cc1cccc(C(=O)Nc2cccc(NC(=O)c3ccccc3C(F)(F)F)c2)c1 :: inactive

Ask | Reported flux ratio, lower = inhibition for Voltage-gated inwardly rectifying potassium channel KCNH2 (Homo sapiens) (UniProt Q12809), given `Cc1cccc(C(=O)Nc2cccc(NC(=O)c3ccco3)c2)c1` ?
Reply | inactive

Ask | Reported flux ratio, lower = inhibition for Voltage-gated inwardly rectifying potassium channel KCNH2 (Homo sapiens) (UniProt Q12809), given `COc1ccccc1NC(=O)c1cccc(NC(=O)CC2CCCC2)c1` ?
Reply | inactive

Ask | Reported flux ratio, lower = inhibition for Voltage-gated inwardly rectifying potassium channel KCNH2 (Homo sapiens) (UniProt Q12809), given `COc1cnccc1C(=O)Nc1cccc(NC(=O)c2cccc(C)c2)c1` ?
Reply | inactive

Ask | Reported flux ratio, lower = inhibition for Voltage-gated inwardly rectifying potassium channel KCNH2 (Homo sapiens) (UniProt Q12809), given `O=C(Nc1cccc(NC(=O)c2ccc(C(F)(F)F)cc2)c1)c1ccccc1` ?
Reply | inactive

Ask | Reported flux ratio, lower = inhibition for Voltage-gated inwardly rectifying potassium channel KCNH2 (Homo sapiens) (UniProt Q12809), given `O=C(Nc1cccc(NC(=O)c2cccnc2)c1)c1ccccc1` ?
Reply | inactive

Ask | Reported flux ratio, lower = inhibition for Voltage-gated inwardly rectifying potassium channel KCNH2 (Homo sapiens) (UniProt Q12809), given `CCOc1ccccc1NC(=O)c1cccc(NC(=O)c2ccc(Cl)cc2)c1` ?
Reply | inactive

Ask | Reported flux ratio, lower = inhibition for Voltage-gated inwardly rectifying potassium channel KCNH2 (Homo sapiens) (UniProt Q12809), given `O=C(Nc1ccccc1Cl)c1cccc(NC(=O)C2CCCC2)c1` ?
Reply | inactive

Ask | Reported flux ratio, lower = inhibition for Voltage-gated inwardly rectifying potassium channel KCNH2 (Homo sapiens) (UniProt Q12809), given `Cc1cccc(C(=O)Nc2cccc(NC(=O)c3ccc(N(C)C)cc3)c2)c1` ?
Reply | inactive

Ask | Reported flux ratio, lower = inhibition for Voltage-gated inwardly rectifying potassium channel KCNH2 (Homo sapiens) (UniProt Q12809), given `CCOc1ccccc1NC(=O)c1cccc(NC(=O)c2ccccc2OC)c1` ?
Reply | inactive
